Entries and their measured hERG current change (%, negative = inhibition) at 10uM follow.
- experimentalTarget: human ether-à-go-go-related gene (hERG) potassium channel (human)
- assayText: primary screen, population patch clamp on CHO cells stably expressing hERG; higher = less effect of the substance
Among all 310,000 compounds or so, about 14,000 (4.5%) showed an effect of 50% or more. Effects have a minus sign here. The sample as a whole holds a higher share of strong results than the screen did.
Returns: string containing the numeric result and its unit.

The measured hERG current change (%, negative = inhibition) at 10uM associated with O=C(c1ccc(CS(=O)Cc2ccc(Cl)cc2)o1)N1CCN(c2cccc(Cl)c2)CC1 (centres unmarked) reads -52.7%

The measured hERG current change (%, negative = inhibition) at 10uM associated with "O=C1CC2(CCCCC2)Oc2ccccc21" reads 14.4%

The measured hERG current change (%, negative = inhibition) at 10uM associated with COc1cccc(N2CCN(C(=O)c3ccc(CS(=O)Cc4ccc(Cl)cc4)o3)CC2)c1 (centres unmarked) reads -41.8%

The measured hERG current change (%, negative = inhibition) at 10uM associated with "CC(=O)Nc1cccc(NC(=O)CSc2ccc(-c3cccnc3)nn2)c1" reads 7.43%

###

- experimentalTarget: human ether-à-go-go-related gene (hERG) potassium channel (human, UniProt Q12809);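 also: peak tail current of the secondary pulse compared with the same well before compound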
- Sequence (Q12809 whole entry, looked up): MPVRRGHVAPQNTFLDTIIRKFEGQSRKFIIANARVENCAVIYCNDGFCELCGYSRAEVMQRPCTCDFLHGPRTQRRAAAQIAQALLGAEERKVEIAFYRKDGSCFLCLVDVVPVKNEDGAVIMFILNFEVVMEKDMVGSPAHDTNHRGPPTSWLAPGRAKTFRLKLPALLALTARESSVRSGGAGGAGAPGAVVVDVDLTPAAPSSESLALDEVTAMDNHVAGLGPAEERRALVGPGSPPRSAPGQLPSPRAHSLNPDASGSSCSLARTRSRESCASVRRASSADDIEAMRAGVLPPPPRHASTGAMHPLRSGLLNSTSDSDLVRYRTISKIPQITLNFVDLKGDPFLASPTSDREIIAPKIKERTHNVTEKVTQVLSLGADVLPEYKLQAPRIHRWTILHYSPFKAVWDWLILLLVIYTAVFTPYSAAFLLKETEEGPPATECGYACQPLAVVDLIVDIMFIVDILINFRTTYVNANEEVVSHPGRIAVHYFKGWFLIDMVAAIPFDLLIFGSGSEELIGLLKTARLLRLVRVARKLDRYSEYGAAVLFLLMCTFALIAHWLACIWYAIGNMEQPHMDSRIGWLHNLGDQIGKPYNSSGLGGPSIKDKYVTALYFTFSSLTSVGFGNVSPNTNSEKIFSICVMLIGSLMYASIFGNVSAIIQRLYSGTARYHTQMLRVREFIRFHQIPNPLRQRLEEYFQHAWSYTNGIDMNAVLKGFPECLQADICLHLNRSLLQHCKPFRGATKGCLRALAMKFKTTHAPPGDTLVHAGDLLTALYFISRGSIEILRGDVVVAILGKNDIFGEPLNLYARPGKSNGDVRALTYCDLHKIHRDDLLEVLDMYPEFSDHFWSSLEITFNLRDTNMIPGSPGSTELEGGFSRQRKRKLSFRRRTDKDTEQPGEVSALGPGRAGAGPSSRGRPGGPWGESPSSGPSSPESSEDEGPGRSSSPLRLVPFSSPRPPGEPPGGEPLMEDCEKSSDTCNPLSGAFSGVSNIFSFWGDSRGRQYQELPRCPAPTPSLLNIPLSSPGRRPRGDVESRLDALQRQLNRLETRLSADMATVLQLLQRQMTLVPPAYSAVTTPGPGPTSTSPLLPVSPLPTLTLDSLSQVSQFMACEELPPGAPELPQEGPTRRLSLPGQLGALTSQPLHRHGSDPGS
- assayText: primary screen, population patch clamp on CHO cells stably expressing hERG; higher = less effect of the substance
The campaign covered roughly 310,000 compounds. About 14,000 (4.5%) showed an effect of 50% or more. Effects have a minus sign here. The sample holds strong results, similar compounds and a random draw of the others, so the mix is not that of the screen.
Entries and their measured hERG current change (%, negative = inhibition) at 10uM follow.
Just the number please, in %, no unit attached.

Here's what some known entries look like.
The measured hERG current change (%, negative = inhibition) at 10uM associated with "Cc1cc(Oc2nnnn2-c2ccccc2)ccc1Cl" reads -15.3

The measured hERG current change (%, negative = inhibition) at 10uM associated with CCC1C(=O)C(CC)C(c2ccccc2)NC1c1ccccc1 (centres unmarked) reads 11.9

The measured hERG current change (%, negative = inhibition) at 10uM associated with CC(C(=O)OCC(=O)c1ccc(F)cc1)N1C(=O)C2C3C=CC(C3)C2C1=O (centres unmarked) reads -15.4

The measured hERG current change (%, negative = inhibition) at 10uM associated with COCC1CCN(Cc2nc(COc3ccccc3)no2)C1 (centres unmarked) reads 12.3

Further cases:
The measured hERG current change (%, negative = inhibition) at 10uM associated with "Cc1cccc(OCC(=O)NCc2cc(C)nc3ccccc23)c1" reads -9.05

The measured hERG current change (%, negative = inhibition) at 10uM associated with "O=C(O)c1cccc(S(=O)(=O)N2CC=C(c3ccccc3)CC2)c1" reads -4.64

The measured hERG current change (%, negative = inhibition) at 10uM associated with "O=C(CCc1c[nH]c2ccccc12)OCc1ccc(Br)cc1" reads 10.2

The measured hERG current change (%, negative = inhibition) at 10uM associated with "CCOC(=O)CN1C(=O)N[C@@H](c2cccs2)C(C(=O)OC)=C1C" reads -11

The measured hERG current change (%, negative = inhibition) at 10uM associated with "CCOC(=O)C1CCN(CCC(=O)Nc2ccccc2Cl)CC1.Cl" reads -19.3

The measured hERG current change (%, negative = inhibition) at 10uM associated with "CCOC(=O)C1CCN(CCC(=O)Nc2ccc(C)cc2)CC1" reads -32.4

The measured hERG current change (%, negative = inhibition) at 10uM associated with O=c1c(Cl)c(NCC2CCCO2)cnn1C12CC3CC(CC(C3)C1)C2 (centres unmarked) reads -29.3

###

- experimentalTarget: human ether-à-go-go-related gene (hERG) potassium channel (human, UniProt Q12809);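 also: peak tail current of the secondary pulse compared with the same well before compound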
- assayText: primary screen, population patch clamp on CHO cells stably expressing hERG; higher = less effect of the substance
Hit rate of the full screen: of about 310,000 compounds, about 14,000 (4.5%) showed an effect of 50% or more. Effects have a minus sign here. Many of the other results were omitted from the sample, so strong results are more common in it than they were.
readoutType: hERG current change (%, negative = inhibition) at 10uM (%)
Just the number please, in %, no unit attached.

Here's what some known entries look like.
Param item: CCOC(=O)N1CCC(N2CCCC(CO)(Cc3cccc(OC)c3)C2)CC1 (centres unmarked) ; param system: human ether-à-go-go-related gene (hERG) potassium channel (human, UniProt Q12809); output hERG current change (%, negative = inhibition) at 10uM: -51.7

Param item: Cc1noc(C)c1CC(=O)N1CCCC(C(=O)c2ccc(C(C)(C)C)cc2)C1 (centres unmarked) ; param system: human ether-à-go-go-related gene (hERG) potassium channel (human, UniProt Q12809); output hERG current change (%, negative = inhibition) at 10uM: -18.8

Param item: CCOC(=O)N1CCC(N2CCCC(C(=O)c3ccc4cc(OC)ccc4c3)C2)CC1 (centres unmarked) ; param system: human ether-à-go-go-related gene (hERG) potassium channel (human, UniProt Q12809); output hERG current change (%, negative = inhibition) at 10uM: -74.3

Param item: COc1ccc2cc(C(=O)C3CCCN(C(=O)Cc4c(C)noc4C)C3)ccc2c1 (centres unmarked) ; param system: human ether-à-go-go-related gene (hERG) potassium channel (human, UniProt Q12809); output hERG current change (%, negative = inhibition) at 10uM: -68.5

Kindly consider the entry below.
Param item: COc1ccc(C(=O)C2CCCN(C(=O)Cc3c(C)noc3C)C2)cc1OC (centres unmarked) ; param system: human ether-à-go-go-related gene (hERG) potassium channel (human, UniProt Q12809); output hERG current change (%, negative = inhibition) at 10uM: -3.81

###

- experimentalTarget: human ether-à-go-go-related gene (hERG) potassium channel (human, UniProt Q12809);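 also: peak tail current of the secondary pulse compared with the same well before compound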
- assayText: primary screen, population patch clamp on CHO cells stably expressing hERG; higher = less effect of the substance
About 14,000 (4.5%) of roughly 310,000 compounds showed an effect of 50% or more. Effects have a minus sign here. The entries come from a sample that favours strong results as a whole.
Entries and their measured hERG current change (%, negative = inhibition) at 10uM follow.
Just the number please, in %, no unit attached.

Here's what some known entries look like.
The measured hERG current change (%, negative = inhibition) at 10uM associated with "CCOC(=O)c1ccccc1NC(=O)c1ccc2c(=O)n3c(nc2c1)CCCCC3" reads -41.3

The measured hERG current change (%, negative = inhibition) at 10uM associated with "COc1ccc(OC)c(S(=O)(=O)NCCc2csc(-c3cccnc3)n2)c1" reads 4.92

The measured hERG current change (%, negative = inhibition) at 10uM associated with "O=C(CCn1nc(-c2ccccc2)ccc1=O)N1CCCC1" reads -45

Further cases:
The measured hERG current change (%, negative = inhibition) at 10uM associated with "O=C(CCCc1ccccc1)NCCS(=O)(=O)N1CCN(c2ccccc2F)CC1" reads -18.5

The measured hERG current change (%, negative = inhibition) at 10uM associated with "COc1ccccc1/C=N/NC(=O)c1cccc(OC(F)(F)C(F)F)c1" reads -9.51

The measured hERG current change (%, negative = inhibition) at 10uM associated with "C=CCNC(=O)c1cnn(-c2ccccc2)c1-c1ccccc1" reads 10.4

###

- experimentalTarget: human ether-à-go-go-related gene (hERG) potassium channel (human, UniProt Q12809);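 also: peak tail current of the secondary pulse compared with the same well before compound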
- assayText: primary screen, population patch clamp on CHO cells stably expressing hERG; higher = less effect of the substance
- Method: Briefly, Chinese hamster ovary (CHO) cells stably expressing the hERG channel were dislodged from tissue culture flasks and dispensed into PPC plates. […] During the recording, background leak currents were estimated by a 100 ms step to -80 mV from an initial holding potential of -70 mV and subtracted from the subsequent current measurement. The campaign was conducted in two phases using slight differences in recording protocol. […]
Hit rate of the full screen: of about 310,000 compounds, about 14,000 (4.5%) showed an effect of 50% or more. Effects have a minus sign here. Only a selection was taken, and strong results are over-represented in it overall.
Entries and their measured hERG current change (%, negative = inhibition) at 10uM follow.
Just the number please, in %, no unit attached.

Here's what some known entries look like.
The measured hERG current change (%, negative = inhibition) at 10uM associated with "Cc1cc(C)n(-c2cc(N3CCN(S(=O)(=O)c4ccc5ccccc5c4)CC3)ccc2[N+](=O)[O-])n1" reads -1.13

The measured hERG current change (%, negative = inhibition) at 10uM associated with "CC(=O)c1cccc(NC(=O)CSc2n[nH]c(-c3ccncc3)n2)c1" reads 10.5

The measured hERG current change (%, negative = inhibition) at 10uM associated with "Cc1cc(C)n(-c2cc(N3CCN(C(=O)c4cccc(Br)c4)CC3)ccc2[N+](=O)[O-])n1" reads -67.6

The measured hERG current change (%, negative = inhibition) at 10uM associated with "Cc1cc(C)n(-c2cc(N3CCN(S(=O)(=O)c4ccc(Br)cc4)CC3)ccc2[N+](=O)[O-])n1" reads -21.3

The measured hERG current change (%, negative = inhibition) at 10uM associated with "Cc1cc(C)n(-c2cc(N3CCN(C(=O)c4cccc(F)c4)CC3)ccc2[N+](=O)[O-])n1" reads -67.9

The measured hERG current change (%, negative = inhibition) at 10uM associated with "O=C(c1cccc(F)c1)N1CCN(c2ccc([N+](=O)[O-])c(N3CCOCC3)c2)CC1" reads -25

The measured hERG current change (%, negative = inhibition) at 10uM associated with "COc1ccc(CN(CC(=O)NC2CCCC2)C(=O)c2ccc(-c3ccccc3)[nH]2)cc1" reads -19.9

Kindly consider the entry below.
The measured hERG current change (%, negative = inhibition) at 10uM associated with "Cc1ccc(NC(=O)c2ccc3c(=O)n4c(nc3c2)CCCCC4)nc1" reads -60.4
